Numbers sourced from patent US20220089592A1.

Experimental System: UniProt:Q9NWZ3
Measurement Notes: 2-hour 1 mM ATP IRAK4 Biochemical assay (as above, but with 100 pM IRAK4 and 1 mM ATP)
Run Conditions: IRAK4 MSD BIOCHEMICAL (1 mM ATP) IC50 (μM), 100 pM IRAK4, 2 hours
Measurement Kind: IC50 (µM)

I: CCOc1cc2nc(C3CCOCC3)cn2cc1NC(=O)c1ccccc1OC
II: CCOc1cc2nc(C3C4COCC43)cn2cc1NC(=O)c1coc(C2CC2)n1 (stereo not drawn)
Exercise: Pick the one with the larger IC50: I vs II Output the label that corresponds to your choice.
Solution: I

====

Experimental System: IRAK4 (Homo sapiens)
Measurement Notes: 2-hour 10 μM ATP Biochemical Assay (MesoScale Detection format; IRAK4 phosphorylation of biotin labeled IRAK1 activation loop peptide)
Run Conditions: IRAK4 MSD BIOCHEMICAL (10 μM ATP) IC50 (μM), 1 nM IRAK4, 2 hours
Measurement Kind: IC50 (µM)

Answered cases to consult:
INSERT INTO measurements (smiles_str, measurement_kind, observed_measurement) VALUES
  ('CCOc1cc2nc(C(C)(C)C#N)cn2cc1NC(=O)c1coc(C(C)C)n1', 'IC50', 0.006),
  ('O=C(Nc1cn2cc(C3CCOCC3)nc2cc1F)c1cccc(C(F)F)n1', 'IC50', 0.031),
  ('CCOc1cc2nc(C3CCOCC3)cn2cc1NC(=O)c1scc2c1OCCO2', 'IC50', 0.001);

A: CCOc1cc2nc([C@H]3C[C@@H](OC(C)C)C3)cn2cc1NC(=O)c1cccc(C(F)F)n1
B: CCOc1cc2nc(CO)cn2cc1NC(=O)c1cccc(C(F)(F)F)n1
C: COc1cc2nc(C3CC3)cn2cc1NC(=O)c1cccn(C)c1=O
D: CCOc1cc2nc(C3CCOCC3)cn2cc1NC(=O)c1ccn(C2CCCC2)n1
E: CCOc1cc2nc(C3CCOCC3)cn2cc1NC(=O)c1cnc2c(c1)CCO2
Exercise: Hey, quick one: sort these by IC50, low to high? Answer by writing out the labels in the requested order.
Solution: A, D, B, E, C
(A: 0.001 µM, D: 0.002 µM, B: 0.004 µM, E: 0.006 µM, C: 0.033 µM)

====

Experimental System: IRAK4 (Homo sapiens, UniProt Q9NWZ3)
Sequence (Q9NWZ3 1-460): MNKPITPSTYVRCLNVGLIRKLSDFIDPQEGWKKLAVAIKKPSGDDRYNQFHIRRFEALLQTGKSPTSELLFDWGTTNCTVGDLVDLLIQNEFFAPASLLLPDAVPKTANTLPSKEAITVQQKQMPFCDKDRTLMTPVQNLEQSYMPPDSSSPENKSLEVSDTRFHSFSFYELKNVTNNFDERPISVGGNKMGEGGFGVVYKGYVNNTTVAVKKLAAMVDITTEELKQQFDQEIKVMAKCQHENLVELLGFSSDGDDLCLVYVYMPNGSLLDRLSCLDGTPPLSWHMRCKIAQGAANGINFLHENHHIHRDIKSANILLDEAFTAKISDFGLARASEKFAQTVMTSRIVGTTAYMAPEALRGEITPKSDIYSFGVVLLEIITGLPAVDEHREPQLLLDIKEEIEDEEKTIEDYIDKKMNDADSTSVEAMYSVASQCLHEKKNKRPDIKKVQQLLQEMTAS
Measurement Notes: 2-hour 10 μM ATP Biochemical Assay (MesoScale Detection format; IRAK4 phosphorylation of biotin labeled IRAK1 activation loop peptide)
Run Conditions: IRAK4 MSD BIOCHEMICAL (10 μM ATP) IC50 (μM), 1 nM IRAK4, 2 hours
Measurement Kind: IC50 (µM)

INSERT INTO assay_data (molecule, observed_measurement) VALUES
  ('CCOc1cc2nc(C34CC(CO)(C3)C4)cn2cc1NC(=O)c1cccc(C(F)F)n1', 0.001),
  ('CCOc1nc2nc(CC3CCOC3)cn2cc1NC(=O)c1cccc(C(F)(F)F)n1 (stereo not shown) [Example 93]', 0.001),
  ('CCOc1cc2nc([C@@H](O)C3CC3)cn2cc1NC(=O)c1cccc(C(F)(F)F)n1 (single isomer, unassigned)', 0.003),
  ('O=C(Nc1cc(C2=CCOCC2)c2nc(C3CCOCC3)cn2c1)c1cccc(C(F)(F)F)n1', 0.084),
  ('CCOc1cc2nc(C3CC3)cn2cc1NC(=O)c1cccc(C(F)F)n1', 0.006),
  ('COc1cc(NC(=O)c2cccc(C(F)F)n2)cn2cc(C34CC(C#N)(C3)C4)nc12 [Example 511, 2,2,2-trifluoroacetate]', 0.004),
  ('CCOc1cc2nc([C@H]3C[C@H](O)C3)cn2cc1NC(=O)c1cccc(C(F)F)n1', 0.001),
  ('CCOc1cc2nc(C(F)C3CCOC3)cn2cc1NC(=O)c1cccc(C(F)(F)F)n1 (single isomer, unassigned) [Example 144]', 0.001);

I: CCOc1cc2nc(C3CCOCC3)cn2cc1NC(=O)c1ccn(C(F)F)n1
II: O=C(Nc1cc(OCc2ccccc2)c2nc(C3CCOCC3)cn2c1)c1cccc(C(F)(F)F)n1
Exercise: Of I and II , whose reported IC50 is the larger number? Provide the label of your selected option as the answer.
Solution: II
(II: 0.023 µM, I: 0.001 µM)
